# procedureText: A CellTox Green Cytotoxicity Assay to monitor cytotoxicity in HEK293 cells - 0 hour (AID 1224869); further: on the % scale 0 is the no-effect control and ±100 the full control effect; nearly all actives have a fitted effect of over 50% in size
# conditionDescription: CellTox Green fluorescence; series mostly up to 76.8 µM
Calls of active or inactive are those of the source. The call rests on the fitted dose curve; in most records, active means well fitted activation curve with a large enough effect in the repeat runs; inconclusive means weak or mixed curves; inactive means flat fitted curve, though single readings scatter.
observationType: cytotoxicity

cpdSmiles	observationType	value
CCOC(=O)C1=NN(c2ccccc2)C(=O)C1	cytotoxicity	inactive
C1=Cc2ccccc2C1	cytotoxicity	inactive
CC(=O)Nc1ccc(/C=N/NC(N)=S)cc1	cytotoxicity	inactive
CCCCCCCCCCCCCCCBr	cytotoxicity	inactive
O=C1c2cccc(O)c2C(=O)c2c(O)cc(CO)cc21	cytotoxicity	inactive
O=C(O)[C@@H]1[C@H]2C[C@H]3c4[nH]c5ccccc5c4CCN3C[C@@H]2CC[C@@H]1O	cytotoxicity	inactive
NC[C@H]1O[C@H](O[C@H]2[C@H](O)[C@@H](O[C@H]3O[C@H](CO)[C@@H](O)[C@H](N)[C@H]3O)[C@H](N)C[C@@H]2N)[C@H](O)[C@@H](O)[C@@H]1O	cytotoxicity	6.99% [at 6.97 µM] (inactive)
c1ccc(-c2nc[nH]c2-c2ccccc2)cc1	cytotoxicity	inactive
CN(C)C/C=C(/c1ccc(Br)cc1)c1cccnc1	cytotoxicity	inactive
C=CC[N+]1([C@H]2C[C@H]3[C@@H]4CC[C@H]5C[C@H](OC(C)=O)[C@@H](N6CCCCC6)C[C@]5(C)[C@H]4CC[C@]3(C)[C@H]2OC(=O)CC)CCCCC1	cytotoxicity	inactive

====

# targetEntity: Nuclear receptor subfamily 1 group I member 3 (Homo sapiens) (UniProt Q14994)
# Sequence (Q14994 whole entry, looked up): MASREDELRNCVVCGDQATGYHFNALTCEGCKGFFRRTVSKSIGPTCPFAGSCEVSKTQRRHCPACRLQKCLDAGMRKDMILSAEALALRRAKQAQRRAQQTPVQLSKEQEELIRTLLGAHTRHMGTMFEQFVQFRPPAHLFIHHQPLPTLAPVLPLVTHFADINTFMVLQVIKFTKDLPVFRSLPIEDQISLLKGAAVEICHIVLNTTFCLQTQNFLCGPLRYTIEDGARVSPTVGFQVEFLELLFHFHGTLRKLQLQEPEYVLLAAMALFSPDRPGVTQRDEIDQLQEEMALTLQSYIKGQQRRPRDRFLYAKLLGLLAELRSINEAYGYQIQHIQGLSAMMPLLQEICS
# procedureText: qHTS assay to identify small molecule agonists of the constitutive androstane receptor (CAR) signaling pathway (AID 1224839); further: nearly all actives have a fitted effect of over 15% in size;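 on activation: HepG2 cells stably carrying human CAR and a CYP2B6 luciferase reporter; on the % scale 0 is the no-effect control and ±100 the full control effect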
# conditionDescription: HepG2 hCAR CYP2B6-luciferase, agonist mode, 24 h; series mostly up to 92.4 µM
Inconclusive results are not listed. The source made the active and inactive calls. Calls follow the shape of the dose curve; as a rule, active = well fitted activation curve with a large enough effect in the repeat runs; inconclusive = weak or mixed curves; inactive = no such curve, though single readings can be large or run the other way.
Outcome codes: active, inactive

> print(dat)
                                    molecule                              targetentity     label
 1  CCOC(=O)C1=C(C)NC(C)=C(C(=O)OC)C1c1cccc([N+](=O)[O-])c1 (stereo unspecified)  Nuclear receptor subfamily 1 group I member 3 (Homo sapiens) (UniProt Q14994)  inactive
 2  NC(N)=NN=C(/C=C/c1ccc([N+](=O)[O-])o1)/C=C/c1ccc([N+](=O)[O-])o1  Nuclear receptor subfamily 1 group I member 3 (Homo sapiens) (UniProt Q14994)  inactive
 3                        COc1ccc(C(C)=O)cc1  Nuclear receptor subfamily 1 group I member 3 (Homo sapiens) (UniProt Q14994)  inactive
 4                      Cc1cccc(C(C)(C)C)c1O  Nuclear receptor subfamily 1 group I member 3 (Homo sapiens) (UniProt Q14994)  inactive
 5                    CCCCCOC(=O)c1ccc(O)cc1  Nuclear receptor subfamily 1 group I member 3 (Homo sapiens) (UniProt Q14994)    active
 6  O=C1[C@H](CC[C@H](O)c2ccc(F)cc2)[C@@H](c2ccc(O)cc2)N1c1ccc(F)cc1  Nuclear receptor subfamily 1 group I member 3 (Homo sapiens) (UniProt Q14994)  inactive
 7  CCc1nn(C2CCCCC2)c2cc(C3(C#N)CCC(C(=O)O)CC3)ccc12 (stereo unspecified)  Nuclear receptor subfamily 1 group I member 3 (Homo sapiens) (UniProt Q14994)  inactive
 8                                NCc1ccccc1  Nuclear receptor subfamily 1 group I member 3 (Homo sapiens) (UniProt Q14994)  inactive
 9          CCN(CC)CCOC(=O)C1(c2ccccc2)CCCC1  Nuclear receptor subfamily 1 group I member 3 (Homo sapiens) (UniProt Q14994)  inactive
10  COC(=O)CSc1cc(N=c2sc(=O)n3n2CCCC3)c(F)cc1Cl  Nuclear receptor subfamily 1 group I member 3 (Homo sapiens) (UniProt Q14994)  inactive
11  O=C(O)c1cccc(N(Cc2cccnc2)c2ccc(OC(F)F)c(OC(F)F)c2)c1  Nuclear receptor subfamily 1 group I member 3 (Homo sapiens) (UniProt Q14994)  inactive

Source listed as PubChem BioAssay (Tox21).
